# credit: patent US6262036A

Test system: complementary synthetic RNA target
test: Binding affinities of chimeric backbone oligomers to RNA (Example 35)
Parameters: unit not given here
experimentalConditions: 37° C., two-state model fit
Please go through the items and note down their KA (37° C.).

Below are some substances; for each one, tell me its KA (37° C.).
1. 3214-1: 5'-GTCTTCCA(TGCAT)GTTGTCC-3' [MP(Rp)/DE][PS/DE][MP(Rp)/DE] [Oligomer 3214-1]
2. 2681-1: 5'-GTCTTCCA(TGCAT)GTTGTCC-3' [MP][PS/DE][MP] [Oligomer 2681-1]
3. 3257-1: 5'-GTCTTC(CATGCAT)GTTGTCC-3' [MP(Rp)/DE][PS/DE][MP(Rp)/DE] [Oligomer 3257-1]
4. 3169-1: 5'-GTCTTCCA(TGCAT)GTTGTCC-3' [MP(Rp)/DE][DE][MP(Rp)/DE] [Oligomer 3169-1]

Response:
["2.3 × 10^14", "2.1 × 10^7", "2.1 × 10^14", "6.0 × 10^14"]
